Tested on: p52 (NF-kB2) nuclear translocation, HeLa cells
ASSAY: p52 (NF-kB2) nuclear translocation assay in HeLa cells (non-classical NF-kB signaling, anti-lymphotoxin beta receptor antibody stimulated)
Format: cell-based
DETAILS: Homo sapiens, 100 ng/mL anti-lymphotoxin beta receptor antibody for 5 hours, read-out: p52 HeLa Transloc Assay (IC50)
pIC50: −log10 of the molar value.
Is pIC50 at least 7? Then label 1. If not, label 0.

Example results:
COMPOUND	CLASSIFICATION
CN1CC[C@@](O)(C#Cc2cccc(-n3nc(C(N)=O)c4cc(C#N)ccc43)c2)C1=O	label 0
CN1CC[C@@](O)(C#Cc2cccc(-n3nc(C(N)=O)c4cc(OCCN5CCOCC5)ccc43)c2)C1=O	label 0

Threshold query (pIC50 >= 7) on `CN1CC[C@@](O)(C#Cc2cccc(-n3nc(C(N)=O)c4cncnc43)c2)C1=O`
label 1

Repeat for the following compound: `COc1ccc2c(-c3cccc(C#C[C@]4(O)CCN(C)C4=O)c3)nc(C(N)=O)n2c1`
label 1

Repeat for the following compound: `CN1CC[C@@](O)(C#Cc2cccc(-c3nc(C(N)=O)n4cc(Cl)ccc34)c2)C1=O`
label 1

Repeat for the following compound: `CN1CC[C@@](O)(C#Cc2ccc(F)c(-c3nc(C(N)=O)n4cc(Cl)ccc34)c2)C1=O`
label 1

Repeat for the following compound: `CNc1nccc2c1c(C(N)=O)nn2-c1cccc(C#C[C@]2(O)CCN(C)C2=O)c1`
label 1

Repeat for the following compound: `CN1CC[C@@](O)(C#Cc2cccc(-n3nc(C(N)=O)c4c3CCCC4)c2)C1=O`
label 0

Repeat for the following compound: `C[C@H]1CCc2c1c(C(N)=O)nn2-c1cccc(C#C[C@]2(O)CCN(C)C2=O)c1`
label 0

Repeat for the following compound: `CCOC(=O)N1CCc2c(c(C(N)=O)nn2-c2cc(C#C[C@]3(O)CCN(C)C3=O)ccn2)C1`
label 0

Repeat for the following compound: `Cc1nnc([C@](C)(O)C#Cc2cccc(-c3nc(C(N)=O)n4cc(Cl)ccc34)c2)o1`
label 0

Repeat for the following compound: `COc1cc2c(C(N)=O)nn(-c3cccc(C#C[C@]4(O)CCN(C)C4=O)c3)c2cn1`
label 1

Repeat for the following compound: `CN1CC[C@@](O)(C#Cc2cccc(-n3nc(C(N)=O)c4cc(CC#N)ccc43)c2)C1=O`
label 1

Repeat for the following compound: `CN1CC[C@@](O)(C#Cc2cccc(-n3nc(C(N)=O)c4c3CCN(c3ccncn3)C4)c2)C1=O`
label 0

Repeat for the following compound: `CN1CC[C@@](O)(C#Cc2cccc(-n3nc(C(N)=O)c4cc(OCCN5CCC5)ccc43)c2)C1=O`
label 0

Repeat for the following compound: `CN1CC[C@@](O)(C#Cc2cccc(-n3nc(C(N)=O)c4cnc(C5CC5)nc43)c2)C1=O`
label 1

Repeat for the following compound: CC1Cc2c(C(N)=O)nn(-c3cccc(C#C[C@]4(O)CCN(C)C4=O)c3)c2C1 (stereo partly shown)
label 0

Repeat for the following compound: `CN1CC[C@@](O)(C#Cc2ccnc(-n3nc(C(N)=O)c4ccccc43)c2)C1=O`
label 1

Repeat for the following compound: `CN1CC[C@@](O)(C#Cc2ccnc(-n3nc(C(N)=O)c4c3CCC4)c2)C1=O`
label 0

Repeat for the following compound: `CN1CC[C@@](O)(C#Cc2cccc(-c3nc(C(N)=O)n4ccccc34)c2)C1=O`
label 1

Repeat for the following compound: `CN1CCC[C@@](O)(C#Cc2cccc(-n3nc(C(N)=O)c4ccc(F)cc43)c2)C1=O`
label 0

Repeat for the following compound: `CN1CC[C@@](O)(C#Cc2cccc(-c3nc(C(N)=O)c4ccccn34)c2)C1=O`
label 0

Repeat for the following compound: `CN1CC[C@@](O)(C#Cc2cccc(-n3nc(C(N)=O)c4c3CCCN4)c2)C1=O`
label 0

Repeat for the following compound: `CN1CC[C@@](O)(C#Cc2ccc(F)c(-n3nc(C(N)=O)c4c3CCC4)c2)C1=O`
label 0

----------
EXPERIMENTAL SYSTEM: nuclear factor-kappa B (NF-kB)-inducing kinase (NIK) (Homo sapiens (Human), UniProt Q99558)
Sequence (Q99558 whole entry): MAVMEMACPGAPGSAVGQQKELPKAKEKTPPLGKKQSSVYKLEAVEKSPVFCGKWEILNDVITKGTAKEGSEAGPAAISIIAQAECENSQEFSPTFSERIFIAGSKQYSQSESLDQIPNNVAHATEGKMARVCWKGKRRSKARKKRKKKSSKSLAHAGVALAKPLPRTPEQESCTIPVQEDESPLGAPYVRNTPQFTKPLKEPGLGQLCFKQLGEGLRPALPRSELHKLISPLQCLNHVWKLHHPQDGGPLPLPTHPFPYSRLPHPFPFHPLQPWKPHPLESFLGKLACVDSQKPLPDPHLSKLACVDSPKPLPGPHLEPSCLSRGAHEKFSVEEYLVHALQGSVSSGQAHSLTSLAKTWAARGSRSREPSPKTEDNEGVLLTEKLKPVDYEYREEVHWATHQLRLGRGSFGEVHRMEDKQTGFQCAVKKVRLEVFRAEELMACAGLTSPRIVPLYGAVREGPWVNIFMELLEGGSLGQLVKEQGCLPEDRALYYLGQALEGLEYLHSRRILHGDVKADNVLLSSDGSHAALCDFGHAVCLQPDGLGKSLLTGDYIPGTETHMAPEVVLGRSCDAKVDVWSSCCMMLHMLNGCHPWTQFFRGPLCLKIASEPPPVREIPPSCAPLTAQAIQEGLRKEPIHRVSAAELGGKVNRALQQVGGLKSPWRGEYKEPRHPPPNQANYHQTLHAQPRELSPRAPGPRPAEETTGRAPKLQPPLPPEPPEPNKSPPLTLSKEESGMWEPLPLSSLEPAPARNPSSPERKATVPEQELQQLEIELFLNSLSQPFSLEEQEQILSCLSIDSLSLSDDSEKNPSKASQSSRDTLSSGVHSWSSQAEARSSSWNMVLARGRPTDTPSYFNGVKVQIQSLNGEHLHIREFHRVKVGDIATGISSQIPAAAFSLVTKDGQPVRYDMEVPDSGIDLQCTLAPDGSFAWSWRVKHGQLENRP
ASSAY: NIK enzyme inhibition assay (Transcreener ADP, NIK ADP-FP)
Assay type: biochemical
DETAILS: purified NIK 0.5 nM, 10 μM ATP, fluorescence polarization; read-out: NIK ADP-FP (Ki μM)
We'd kindly ask you to apply these Ki classes: LOW (below 0.3 nM), MEDIUM (0.3 nM to below 1 nM), HIGH (1 nM or more)

MOLECULE	CLASSIFICATION
CN1CC[C@@](O)(C#Cc2cccc(-n3nc(C(N)=O)c4c3CCC[C@H]4O)c2)C1=O [Compound 2]	HIGH
Cc1cc2c(C(N)=O)nn(-c3cccc(C#C[C@]4(O)CCN(C)C4=O)c3)c2cn1 [Compound 149]	HIGH
CN1CC[C@@](O)(C#Cc2cccc(-n3nc(C(N)=O)c4cc(OCCN5CCOCC5)ccc43)c2)C1=O [Compound 162]	MEDIUM
CN1CC[C@@](O)(C#Cc2cccc(-c3nc(C(N)=O)n4c3NCC4)c2)C1=O [Compound 87]	HIGH
CN1CC[C@@](O)(C#Cc2cccc(-n3nc(C(N)=O)c4cc(-c5ccn(C)n5)ccc43)c2)C1=O [Compound 101]	LOW
Cc1nnc([C@](C)(O)C#Cc2cccc(-c3nc(C(N)=O)n4cc(Cl)ccc34)c2)o1 [Compound 185]	HIGH
CN1CC[C@@](O)(C#Cc2cccc(-n3nc(C(N)=O)c4cc(F)cnc43)c2)C1=O [Compound 75]	LOW
CN1CC[C@@](O)(C#Cc2cccc(-c3nc(C(N)=O)n4c3CCCC4)c2)C1=O [Compound 177]	LOW
Cc1cc2c(cn1)c(C(N)=O)nn2-c1cccc(C#C[C@]2(O)CCN(C)C2=O)c1 [Compound 131]	MEDIUM
C[C@H](O)c1ccc2c(c1)c(C(N)=O)nn2-c1cccc(C#C[C@]2(O)CCN(C)C2=O)c1 [Compound 45]	HIGH

Could you place Cc1cc([C@](C)(O)C#Cc2ccnc(-n3nc(C(N)=O)c(Cl)c3C)c2)no1 [Compound 82] in its proper category? Many thanks.
HIGH

Repeat for the following molecule: CC(=O)N1CCc2c(c(C(N)=O)nn2-c2cccc(C#C[C@]3(O)CCN(C)C3=O)c2)C1 [Compound 19]
HIGH

Repeat for the following molecule: CN1CC[C@@](O)(C#Cc2cccc(-n3nc(C(N)=O)c4cc(CO)ccc43)c2)C1=O [Compound 35]
HIGH

Repeat for the following molecule: Cc1nc2c(s1)c(C(N)=O)nn2-c1cccc(C#C[C@]2(O)CCN(C)C2=O)c1 [Compound 25]
MEDIUM

Repeat for the following molecule: CN1CC[C@@](O)(C#Cc2ccc(F)c(-c3nc(C(N)=O)n4cc(Cl)ccc34)c2)C1=O [Compound 186]
LOW

Repeat for the following molecule: CN1CC[C@@](O)(C#Cc2cccc(-n3nc(C(N)=O)c4c3CCN(c3ccncn3)C4)c2)C1=O [Compound 120]
MEDIUM

----------
Answer each item with its documented Ki.
EXPERIMENTAL SYSTEM: nuclear factor-kappa B (NF-kB)-inducing kinase (NIK) (Homo sapiens (Human), UniProt Q99558)
ASSAY: NIK enzyme inhibition assay (Transcreener ADP, NIK ADP-FP)
Assay type: biochemical
DETAILS: purified NIK 0.5 nM, 10 μM ATP, fluorescence polarization; read-out: NIK ADP-FP (Ki μM)
Give bare numbers, in µM.

Known results for compounds:
1) CN1C[C@H](O)[C@@](O)(C#Cc2cccc(-n3nc(C(N)=O)c4ccccc43)c2)C1=O 0.0196
2) CN1CC[C@@](O)(C#Cc2cccc(-n3nc(C(N)=O)c4c3CC(F)(F)C4)c2)C1=O 0.00026
3) CN1CC[C@@](O)(C#Cc2cccc(-n3nc(C(N)=O)c4c3CCOC4)c2)C1=O 0.00075

Moving on to the next compound.
Find the recorded Ki belonging to `CN1CC[C@@](O)(C#Cc2ccnc(-n3nc(C(N)=O)c4ccc(F)cc43)c2)C1=O` and report it.
0.0001

----------
EXPERIMENTAL SYSTEM: nuclear factor-kappa B (NF-kB)-inducing kinase (NIK) (Homo sapiens (Human), UniProt Q99558)
ASSAY: NIK enzyme inhibition assay (Transcreener ADP, NIK ADP-FP)
Type: biochemical
DETAILS: purified NIK 0.5 nM, 10 μM ATP, fluorescence polarization; read-out: NIK ADP-FP (Ki μM)
REPORTED PROPERTY: Ki (nM)
Numbers only, in nM.

Known results for molecules:
1. CN1CC[C@@](O)(C#Cc2cccc(-c3nc(C(N)=O)c(N)s3)c2)C1=O 0.05
2. CN1CC[C@@](O)(C#Cc2cccc(-c3nc(C(N)=O)c4n3CCC4)c2)C1=O 28.1
3. CN1CC[C@@](O)(C#Cc2cccc(-n3nc(C(N)=O)c4c3CCN([S@+](C)[O-])C4)c2)C1=O 46.4
4. CN1CC[C@@](O)(C#Cc2ccnc(-n3nc(C(N)=O)c4c3CC(C)(C)CC4)c2)C1=O 2.92

Give Ki for each listed item.
1. CN1C[C@@H](O)[C@](O)(C#Cc2cccc(-n3nc(C(N)=O)c4ccccc43)c2)C1=O
2. CN1CC[C@](O)(C#Cc2cccc(-n3nc(C(N)=O)c4c3C(=O)NC4)c2)C1=O
3. CN1CC[C@@](O)(C#Cc2cccc(-n3nc(C(N)=O)c4cnc(N5CC[C@H](O)C5)cc43)c2)C1=O

1: 10.2; 2: 1.54; 3: 0.39

Reference source for all entries: patent US9605005B2
